Data provenance: PubChem BioAssay AID1159580

assay: chemical genetic growth profiling, strain panel (AID 1159580);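 note: tested at 20 µM; growth read once vehicle control cultures reached saturation at 30 °C; 1 = growth at the plate median or of vehicle wells; lower values mean less growth of the strain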; settings: S. cerevisiae deletion strains, growth OD, locus YDR297W, strain sur2, stronger effect = lower value
The whole screen tested about 5,500 compounds, of which about 2,000 (36%) were called active. Not shown: some 18% with an inconclusive outcome. The list shows a part of the results.
measured_property: normalized growth

{"molecule": "CC(=O)OC1CCC23CC1(C)CCC2C(C)(C)CC3OC(C)=O (centres undefined)", "measured_property": "normalized growth", "result": "1.01 (inactive)"}
{"molecule": "C=C[C@H]1CN2CC[C@H]1C[C@H]2[C@H](O)c1ccnc2ccccc12", "measured_property": "normalized growth", "result": "1 (inactive)"}
{"molecule": "CN1CCCCC1c1ccc(-c2cccnc2)nc1 (centres undefined)", "measured_property": "normalized growth", "result": "0.967 (inactive)"}
{"molecule": "COc1ccc(CC(=O)c2ccc(O)cc2O)cc1", "measured_property": "normalized growth", "result": "0.988 (inactive)"}
{"molecule": "CC(C)N1C(=O)c2ccccc2NS1(=O)=O", "measured_property": "normalized growth", "result": "0.988 (inactive)"}
{"molecule": "Oc1cc2c(cc1O)C(c1ccccc1)CNCC2 (centres undefined)", "measured_property": "normalized growth", "result": "0.996 (inactive)"}
{"molecule": "CC(=O)Nc1c(I)cc(I)c(C(=O)O)c1I", "measured_property": "normalized growth", "result": "0.994 (inactive)"}
{"molecule": "O=C1NS(=O)(=O)c2ccccc21", "measured_property": "normalized growth", "result": "1.02 (inactive)"}
{"molecule": "O=C(c1ccccc1)c1ccc2n1CCC2C(=O)O (centres undefined)", "measured_property": "normalized growth", "result": "0.991 (inactive)"}
{"molecule": "O=C(O)CC[N+](=O)[O-]", "measured_property": "normalized growth", "result": "1.02 (inactive)"}
{"molecule": "CC1CC(OC(=O)c2ccccc2O)CC(C)(C)C1 (centres undefined)", "measured_property": "normalized growth", "result": "0.973 (inactive)"}
{"molecule": "COC(=O)C[C@H]1C(C)(C)[C@@H](OC(C)=O)[C@@H]2CC3=C4CC(=O)O[C@@H](c5ccoc5)[C@]4(C)CCC3[C@@]1(C)C2=O (some centres undefined)", "measured_property": "normalized growth", "result": "0.983 (inactive)"}
{"molecule": "Cn1c(=O)c2c(ncn2C)n(C)c1=O", "measured_property": "normalized growth", "result": "0.98 (inactive)"}
{"molecule": "CO/N=C(/C(=O)NC1C(=O)N2C(C(=O)OCOC(=O)C(C)(C)C)=C(/C=C\\c3scnc3C)CSC12)c1csc(N)n1 (centres undefined)", "measured_property": "normalized growth", "result": "1.01 (inactive)"}
{"molecule": "COc1ccc(-c2c(O)c3c(OC)c4c(cc3oc2=O)OC(C)(C)C=C4)cc1", "measured_property": "normalized growth", "result": "1.02 (inactive)"}
{"molecule": "CC(=O)Oc1c(C)c(C)c2c(c1C)CCC(C)(CCCC(C)CCCC(C)CCCC(C)C)O2 (centres undefined)", "measured_property": "normalized growth", "result": "0.987 (inactive)"}
{"molecule": "CC(=O)c1c(O)cc(O)cc1O", "measured_property": "normalized growth", "result": "0.982 (inactive)"}
{"molecule": "CC12CCC(OC(=O)c3ccccc3)CC1CCc1ccccc12 (centres undefined)", "measured_property": "normalized growth", "result": "0.995 (inactive)"}
{"molecule": "COc1cc(O)ccc1C(C)=O", "measured_property": "normalized growth", "result": "1.02 (inactive)"}
{"molecule": "Cn1c(=O)[nH]c2nc[nH]c2c1=O", "measured_property": "normalized growth", "result": "1 (inactive)"}
{"molecule": "Cn1cnc2c1c(=O)[nH]c(=O)n2C", "measured_property": "normalized growth", "result": "0.991 (inactive)"}
{"molecule": "O=C(Nc1ccc([N+](=O)[O-])cc1Cl)c1cc(Cl)ccc1O", "measured_property": "normalized growth", "result": "0.938 (inactive)"}
{"molecule": "CCC1(C2=NCCN2)Cc2ccccc2O1 (centres undefined)", "measured_property": "normalized growth", "result": "1 (inactive)"}
{"molecule": "COCC1=C(C(=O)OC(C)OC(=O)OC(C)C)N2C(=O)[C@@H](NC(=O)/C(=N\\OC)c3csc(N)n3)[C@H]2SC1 (some centres undefined)", "measured_property": "normalized growth", "result": "0.979 (inactive)"}
{"molecule": "CN1CCN(C2=Nc3cc(Cl)ccc3Nc3ccccc32)CC1", "measured_property": "normalized growth", "result": "0.976 (inactive)"}
{"molecule": "Cn1c(=O)[nH]c2ncn(C)c2c1=O", "measured_property": "normalized growth", "result": "0.959 (inactive)"}
{"molecule": "COC(=O)CC1C(C)(C(=O)c2ccoc2)CC2OCC34C(CC(=O)OC)C5(C)CC36OC3(C)OC1(C(OC(C)=O)C6(OC(C)=O)C5OC(=O)C(C)C)C24O3 (centres undefined)", "measured_property": "normalized growth", "result": "0.978 (inactive)"}
{"molecule": "COC1=CC23CCCN2CCc2cc4c(cc2C3C1O)OCO4 (centres undefined)", "measured_property": "normalized growth", "result": "1.02 (inactive)"}
{"molecule": "O=C(O)c1cc(=O)c2ccccc2[nH]1", "measured_property": "normalized growth", "result": "0.985 (inactive)"}
{"molecule": "CNC(C)[C@@H]1CC[C@@H](N)[C@@H](OC2[C@@H](N)C[C@@H](N)[C@H](OC3OC[C@](C)(O)[C@H](NC)[C@H]3O)[C@H]2O)O1 (some centres undefined)", "measured_property": "normalized growth", "result": "0.983 (inactive)"}
{"molecule": "CC(=CC1CCC(C)C2C1=C(C)CC2O)C(=O)O (centres undefined)", "measured_property": "normalized growth", "result": "1.02 (inactive)"}
{"molecule": "CC(C)C1CCC(C(=O)N[C@@H](Cc2ccccc2)C(=O)O)CC1 (some centres undefined)", "measured_property": "normalized growth", "result": "0.976 (inactive)"}
{"molecule": "COc1ccccc1OCC(O)COC(N)=O (centres undefined)", "measured_property": "normalized growth", "result": "0.996 (inactive)"}
{"molecule": "COc1cc(OC)c2c(OC)c(-c3ccc4c(c3)OCO4)c(=O)oc2c1", "measured_property": "normalized growth", "result": "0.974 (inactive)"}
{"molecule": "O=C(O)[C@H]1/C(=C/CO)O[C@@H]2CC(=O)N21", "measured_property": "normalized growth", "result": "1 (inactive)"}
{"molecule": "O=C(N[C@@H](CO)[C@H](O)c1ccc([N+](=O)[O-])cc1)C(Cl)Cl", "measured_property": "normalized growth", "result": "1.02 (inactive)"}
{"molecule": "C/C(=C\\CO)CC[C@H](C)CCC[C@H](C)CCCC(C)C", "measured_property": "normalized growth", "result": "1.13 [resistant] (active)"}
{"molecule": "CC(=O)OC1CCC2(O)CC1(C)CCC1C2CC1(C)C (centres undefined)", "measured_property": "normalized growth", "result": "1.01 (inactive)"}
{"molecule": "CN1CCC[C@H]1c1cccnc1", "measured_property": "normalized growth", "result": "1.02 (inactive)"}
{"molecule": "O=C(O)C1=C(CSc2nnnn2CS(=O)(=O)O)CS[C@@H]2C(NC(=O)[C@H](O)c3ccccc3)C(=O)N12 (some centres undefined)", "measured_property": "normalized growth", "result": "0.985 (inactive)"}
{"molecule": "CC[C@H]1OC(=O)[C@H](C)[C@@H](O[C@H]2C[C@@](C)(OC)[C@@H](O)[C@H](C)O2)[C@H](C)[C@@H](O[C@@H]2O[C@H](C)C[C@H](N(C)C)[C@H]2O)[C@](C)(O)C[C@@H](C)/C(=N/OCOCCOC)[C@H](C)[C@@H](O)[C@]1(C)O", "measured_property": "normalized growth", "result": "1.02 (inactive)"}
{"molecule": "O=C1C=CC(=O)c2ccccc21", "measured_property": "normalized growth", "result": "0.0592 (active)"}
{"molecule": "COc1cc([C@@H]2c3cc4c(cc3[C@H](O)[C@H]3COC(=O)[C@H]23)OCO4)cc(OC)c1OC", "measured_property": "normalized growth", "result": "1.01 (inactive)"}
{"molecule": "NS(=O)(=O)c1cc2c(cc1Cl)NCNS2(=O)=O", "measured_property": "normalized growth", "result": "1 (inactive)"}
